Reported apparent KD of MS2 coat protein values for the following sequences.
Test system: MS2 coat protein
Assay Protocol: apparent KD of MS2 coat protein; designed switch direction (-1 OFF switch, 1 ON switch): 1; higher = weaker reporter binding
Test Parameters: Eterna round: R98; input ligand: FMN 200 uM
// note: answer is a bare numeric in nM

Known apparent KD of MS2 coat protein results, listed for orientation:
CCGUGACACGAAGGAUAUGUGGGUGGUAGUCUGUGCUCCGCCUACAUGAGGAUCACCCAUGUAUCACAGAAGGUCGGACGUCAA [Zaaerzaza] ... 71.2
GCACUCAAGUUAGGAUAUGGAUCGGAAAACGAUCCAGAAGGAACAUGGGAACAUGAGGAUCACCCAUGUUCCAGAAACGAGUGC [SameSame 1 - Jieux - Same State NG 1] ... 188
CAAUUAUGGUGAGGAUAUGCACAGGAUCACCGUGUAGAAGGCAUCAGGUAGAAGGUGCAGAGGAUCACCCUGUAAGGAUAUAUC [pwkr2 ssNG1 DX.17] ... 109
CACUCAAGGUGAGGAUAUGCACAGGAUCACCGUGUAGAAGGCAUCAGGUAGAAGGUGCAGAGGAUCACCCUGUAAGGAUAUAUC [pwkr2 ssNG1 DX.11] ... 334

// next item, apparent KD of MS2 coat protein requested
// query Entry CCGGAAACGGGUAGCUGACAUGAGGAUCACCCAUGUGAAUCUGAGGAUAUGGAUGGUAAUUCCAUCCAGAAGGCAGUCAGCUAC [Mat - Same State NG 3 - JL Mod - D82] : reported apparent KD of MS2 coat protein = ?
// result 59.1
